Hello, the source for this data is PubChem BioAssay, in case you need it.

Assay: E. coli DRC41 culture turbidity changes, primary screen, E. coli filamentation inducer project, strain DRC41, OD650, 48 h (AID 1152);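 also: E. coli MC1000 strain DRC41 lacking acrAB efflux pump and sulA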
Conditions: E. coli DRC41 (acrAB sulA), higher = more signal, called active from +8 up or from −8 down
The reader will find reported z-score values listed item by item below.
assay_endpoint: z-score

| molecule | assay_endpoint | value_measured |
| --- | --- | --- |
| N#Cc1ccc(C(O)C2C=CC3C(=O)NC(=O)C3N2Nc2ccccn2)cc1 (configuration not stated) | z-score | 0.261 |
| C=CCC(OC(C)=O)[C@@H]1[C@@H](N(Cc2ccc(-c3cccc(C(F)(F)F)c3)o2)C(=O)c2cccc3ccccc23)c2cc(OCCCO)ccc2N1C(=O)c1ccc2ccccc2c1 (some centres not stated) | z-score | -0.0766 |
| CCCCN1CC=CC23O[C@@H]4C=CCOC(=O)[C@@H]4[C@H]2C(=O)N(C(CO)C(C)C)[C@@H]3C1=O (some centres not stated) | z-score | -0.62 |
| CCCCC(=C=CC[C@@H](O)c1ccc(OCCO)cc1)C[C@@H](O)c1ccccn1 | z-score | 0.26 |
| CN1C=C(C(=O)OCCS(C)(=O)=O)C(C(=O)OCCS(C)(=O)=O)=CC(CCCO)=CC1c1ccc(CN2CCCC2)cc1 (configuration not stated) | z-score | 0.0837 |
| CN(C)C(=O)[C@]1(Cc2ccccc2)N=C(c2ccc(OCCCO)cc2)O[C@@H]1c1ccccc1 | z-score | -0.855 |
| COc1ccc(CCNC(=O)[C@@]2(Sc3ccc(C)cc3)CC(=O)N(Cc3cc(C(F)(F)F)cc(C(F)(F)F)c3)[C@@H]2c2ccc(CO)cc2)cc1 | z-score | -0.601 |
